Where do the numbers come from? From the nanobody polyreactivity screen of Harvey et al. (2022).

# runDescription: yeast display, Sf9 membrane polyspecificity reagent, FACS + sequencing; frameworks hold sequencing errors
resultType: polyreactivity (PSR sort gate)

The following sequences have reported results that may help.
seqText	polyreactivity (PSR sort gate)
QVQLVESGGGLVQAGGSLRLSCAGSGSTFYRYALGWYRQAPGKEWEWVAVINSGCSTYYADSVKGRFTISRDNAKHTVYVQMNSMKPEDTAVSYCAAVRNQGGYVYGYGYWGQGTQVTVSS	high polyreactivity
QVQLVESVGGLVQAGGSLRLSCAASGITFDDYAMGWYRQAPGKERELVAVISSSGGSTYYADSVKGRFTISRDNAKNTVYLQMNSLKPEDTAVYYCAARFEVWYTRRVLLGEYDYWGQGTQVTVSS	low polyreactivity
QVQLVESGGGLVQAGGSLRISCAASGSIFYQYAMGWYRQAPGKERELVAGITWSGGSTYYADSVKGRFTISRDNAKNTVYLQMNSLKPEDSAVYYCARRYRGGYFWGQGTQVTVSS	high polyreactivity
HVQLVDSGGGIVQAGGSLRLSCAASGSTFYGNAMGWYRQAPGKEMEFVAAISRGGGSTYYADSVKGRFTISRDNAKNTVYVQMNLLKTEDTADFYCAATRYLHPWYYQYYYCGQGTQVTVSS	low polyreactivity
QVQLVESGGGLVQAGGSLRLSCAASGSTFNQYAMGWYRQAPGKEREFVATITWSGGRTYYADSVKGRFTISRDNAKNTVYLQMISLKPEDTAVYYCAAQPDYRPSYGYGYWGQGTQVTVSS	low polyreactivity
QVQLVESGGGLVQAGGSLRLSCAASGLTFIHYSMGWYRQAPGKEREFVAAISTNSGSTYYADSVKGRFTISRDNAKNTVYLQMNSLKPEDTAVYYCAARGLRWRIDGEYWGQGTQVTVSS	high polyreactivity

Okay, now this sequence:
Input: # input sequence: `QVQLVESGGGLVQAGGSLRLSCAASGSIFKFYTMGWYRQAPGKERELVATISRSGGGTFYADSVKGRFTISGDNSKNTVYLQMNSLKPEDTAVYYCSADPAFTHYPFGYGYWGQGTQVTVSS` ; wanted: its polyreactivity (PSR sort gate)
Output: low polyreactivity
